System: DU-145
protocol: Cytotoxicity against Homo sapiens (human) DU145 cells by SRB assay
Assay type: functional, cell-based
measurement-label: IC50 (µM)
// units = µM; emit number, no label

input: Look up IC50: COC(=O)[C@H](Cc1cnc[nH]1)NC(=O)/C=C/C=C/c1ccc2c(c1)OCO2
output: 21

input: Look up IC50: COC(=O)[C@H](C)NC(=O)/C=C/C=C/c1ccc2c(c1)OCO2
output: 51

input: Look up IC50: COC(=O)CNC(=O)/C=C/C=C/c1ccc2c(c1)OCO2
output: 49

input: Look up IC50: COC(=O)[C@@H](NC(=O)/C=C/C=C/c1ccc2c(c1)OCO2)C(C)C
output: 44

input: Look up IC50: COC(=O)C[C@H](NC(=O)/C=C/C=C/c1ccc2c(c1)OCO2)C(=O)OC
output: 46

---

Tested on: HEp-2
protocol: Cytotoxicity against Homo sapiens (human) Hep2 cells by SRB assay
Type: functional, cell-based
Task for the reader: assign each of the following compounds its reported IC50.

input: Look up IC50: O=C(/C=C/C=C/c1ccc2c(c1)OCO2)N1CCCCC1
output: 70 µM

input: Look up IC50: COC(=O)[C@H](C)NC(=O)/C=C/C=C/c1ccc2c(c1)OCO2
output: > 50 µM

input: Look up IC50: COC(=O)[C@H](CO)NC(=O)/C=C/C=C/c1ccc2c(c1)OCO2
output: > 50 µM

input: Look up IC50: COC(=O)C[C@H](NC(=O)/C=C/C=C/c1ccc2c(c1)OCO2)C(=O)OC
output: > 50 µM

input: Look up IC50: COC(=O)CNC(=O)/C=C/C=C/c1ccc2c(c1)OCO2
output: > 50 µM

input: Look up IC50: COC(=O)[C@@H](NC(=O)/C=C/C=C/c1ccc2c(c1)OCO2)C(C)C
output: > 50 µM

input: Look up IC50: COC(=O)[C@H](CC(C)C)NC(=O)/C=C/C=C/c1ccc2c(c1)OCO2
output: 43 µM

input: Look up IC50: COC(=O)[C@H](Cc1cnc[nH]1)NC(=O)/C=C/C=C/c1ccc2c(c1)OCO2
output: > 50 µM

input: Look up IC50: COC(=O)[C@H](NC(=O)/C=C/C=C/c1ccc2c(c1)OCO2)C(C)C
output: > 50 µM

input: Look up IC50: O=c1[nH]cc(F)c(=O)[nH]1
output: 2 µM

input: Look up IC50: CC[C@H](C)[C@H](NC(=O)/C=C/C=C/c1ccc2c(c1)OCO2)C(=O)OC
output: > 50 µM

---

Test system: DU-145
protocol: Cytotoxicity against Homo sapiens (human) DU145 cells by SRB assay
Format: functional, cell-based
Task for the reader: assign each of the following compounds its reported IC50.

input: Look up IC50: COC(=O)[C@H](NC(=O)/C=C/C=C/c1ccc2c(c1)OCO2)C(C)C
output: > 50 µM

input: Look up IC50: COC(=O)[C@H](CO)NC(=O)/C=C/C=C/c1ccc2c(c1)OCO2
output: > 50 µM

input: Look up IC50: CO[C@@]12[C@H](COC(N)=O)C3=C(C(=O)C(C)=C(N)C3=O)N1C[C@@H]1N[C@@H]12
output: 1.8 µM

input: Look up IC50: CC[C@H](C)[C@H](NC(=O)/C=C/C=C/c1ccc2c(c1)OCO2)C(=O)OC
output: > 50 µM

input: Look up IC50: COC(=O)[C@H](CC(C)C)NC(=O)/C=C/C=C/c1ccc2c(c1)OCO2
output: > 50 µM

input: Look up IC50: O=C(/C=C/C=C/c1ccc2c(c1)OCO2)N1CCCCC1
output: > 50 µM

# credit: ChEMBL document CHEMBL3046009
